Assay: Mouse plasma ciclopirox pharmacokinetics after 30 mg/kg oral dose
Assay type: in vivo
Settings: mouse, in vivo, po
Outcome measure: bioavailability (%)
Numbers only, in %.

Inquiry: Given the entry Cc1cc(C2CCCCC2)n(O)c(=O)c1 [Ciclopirox Olamine, reference compound] , report its measured bioavailability.
Reply text: 21

* * *

Experiment: Mouse plasma ciclopirox pharmacokinetics after 10 mg/kg IV bolus
Assay type: in vivo
Details: in vivo, iv, 10 mg/kg, Plasma Ciclopirox Concentrations
Outcome measure: concentration at 240 min (ng/mL)
One number for each entry, in ng/mL.

Inquiry: Query: concentration at 240 min; subject: Cc1cc(C2CCCCC2)n(O)c(=O)c1 [Ciclopirox Olamine, reference compound]
Reply text: 12
